Test system: KM20L2 colon
Assay: NCI tumour cell line growth inhibition, 48 h
Measure: TGI

IN: Given the entry `C/C(=N\NS(=O)(=O)c1ccc(C)cc1)c1ccc[n+]([O-])n1` , report its measured TGI.
OUT: > 100 µM

IN: Please give the measured TGI for this compound: CCOC(=O)CCC1(C(=O)OC)CCCC1=O (configuration not stated)
OUT: > 100 µM

IN: Can you share its TGI? I mean this compound: CC(C)(CN1CCCCC1)C(=O)CC(SCCS(=O)(=O)O)c1ccc(Br)cc1 (configuration not stated)
OUT: 3.53 µM

IN: Please look up its TGI: `CCOP(=O)(OCC)/C(C#N)=C\c1cccc2ccccc12`
OUT: > 100 µM

IN: Requested field: TGI. Item: `O=C(CCCCCCCCCCc1ccccc1)c1c(O)cccc1O`
OUT: > 100 µM

IN: Given `COc1ccc2cccc(C(=N)c3ccc(C)c4c3CCC4)c2c1` , state its recorded TGI.
OUT: 19.3 µM

IN: Quick one: TGI for `Cc1cc(NS(=O)(=O)c2ccc(Nc3c4ccccc4nc4c(C(=O)NCCN(C)C)ccc(Cl)c34)cc2)no1` ?
OUT: 24 µM

IN: Dear colleague, I am looking for the recorded TGI of the following compound: `c1ccc(SCCCC(Sc2ccccc2)Sc2ccccc2)cc1`
OUT: > 100 µM

IN: Consider the compound shown here: `CC(C)OP(=O)(OC(C)C)C(N(C)C)P(=O)(OC(C)C)OC(C)C.[Cl][Sn]([Cl])([Cl])[c]1ccccc1` What is its recorded TGI?
OUT: 15.8 µM

IN: # input compound: `CC(C)OP(=O)(CP(=O)(OC(C)C)OC(C)C)OC(C)C.[CH3][Sn]([Br])([Br])[Br]` ; wanted: its TGI
OUT: > 100 µM

IN: What does the data say about its TGI? Entry: `O=C(c1cccs1)N(C(=S)N1CCN(c2ccccc2)CC1)c1ccccc1`
OUT: > 100 µM

IN: Reported TGI for COc1cc2c3c(c1OC)-c1ccccc1C(C(OC(C)=O)c1ccccc1)C3N(C)CC2 (configuration not stated) : what is it?
OUT: > 100 µM

* * *

Tested on: PC-3 prostate
Experiment: NCI tumour cell line growth inhibition, 48 h; in the data active means GI50 below about 0.43 µM; inactive means the rest
Respond with a class label; see active, inactive

IN: Hi, sorry to bother you, what did the test record for N#CC1c2ccccc2-c2ccccc2N1C(=O)c1ccccc1 (stereo unspecified) ?
OUT: inactive

IN: // outcome(item) with item = `Cc1ccc([P+](Cc2ccc([N+](=O)[O-])cc2)(c2ccc(C)cc2)c2ccc(C)cc2)cc1`
OUT: inactive

IN: What call does the record list for `CN1C(=O)c2cc(Cl)nc3c(NC(=O)c4cccc(Cl)c4)c(Cl)c(NC(=O)c4cccc(Cl)c4)c1c23` ?
OUT: inactive

IN: Please share the test call associated with `COc1ccc2nc3ccc(OC)cc3c(SCCCN)c2c1` .
OUT: inactive

IN: Hi team, can someone confirm the assay call for `C/C(=C(/c1ccc(O)cc1)c1ccc(OCCN2CCCC2)cc1)c1ccccc1` ?
OUT: inactive

IN: // param item: `c1ccc2c(c1)nc(NCCN1CCNCC1)c1c3ccccc3[nH]c21` ; yields the recorded call
OUT: active

IN: How did this test come out for `COc1ccccc1C(=O)c1cnc(NC2CCN(S(C)(=O)=O)CC2)nc1N` ?
OUT: inactive

IN: What is the recorded call for this compound in the test? `CCCC/C(=N\N=C(N)N)c1ccc(F)cc1`
OUT: inactive

IN: Please share the test call associated with `CC[C@]12C=CCN3CC[C@]4(C(=C(C(=O)OC)C1)Nc1cc(O)ccc14)[C@@H]32` .
OUT: inactive

IN: Which outcome was assigned to `Oc1ccc2ccccc2c1-c1nnc(CCCCCCCCc2nnc(-c3c(O)ccc4ccccc34)o2)o1` in this test?
OUT: inactive

IN: Can you look up the reported call for `O=C(N[C@@H]1CCCc2ccccc21)[C@H](CCC(=O)N1CCN(C2CCCCC2)CC1)N1C(=O)[C@@H](N2C(=O)OC[C@@H]2c2ccccc2)[C@H]1/C=C/c1ccccc1` for me?
OUT: inactive

IN: Hello, I am checking results. What call was entered for `COC(=O)c1cc(Nc2ccc(O)c3c2C(=O)c2c([N+](=O)[O-])ccc(O)c2C3=O)cc(C(=O)OC)c1` ?
OUT: inactive

IN: Name the outcome recorded for `O=C1C=C(Nc2cccc(Br)c2)c2ccccc2C1=O` in the assay.
OUT: inactive

IN: In this assay, the call recorded for `O=C(/C=C/N1CCN(c2cccc(C(F)(F)F)c2)CC1)c1ccc(Cl)cc1Cl` was what?
OUT: inactive

IN: What classification did `CCN(CC)CCOc1ccc(/C=C2\C[C@H]3[C@@H]4CC=C5C[C@@H](OC(C)=O)CC[C@]5(C)[C@H]4CC[C@]3(C)[C@H]2OC(C)=O)cc1OC` end up with in this test?
OUT: inactive

IN: What was the test verdict on COC(=O)C(C)N1C(=O)c2ccccc2I1OC(C)=O (stereo unspecified) ?
OUT: inactive
